system: TK-10 renal; experiment: NCI tumour cell line growth inhibition, 48 h
Quantity Measured: TGI (µM)
Answers are plain numbers, in µM.

COc1cc2c(=O)n(CCN)c3c4cc5c(cc4ccc3c2cc1OC)OCO5    3.28

Would you kindly look at the next entry?
Exam item: // lookup TGI for COc1ccc(N2C(=O)[C@H]3CC(C)c4c([nH]c5ccccc45)[C@H]3C2=O)cc1 (stereo not given in full)
Marked response: 52.7

---

tested on: U251 CNS; assay: NCI tumour cell line growth inhibition, 48 h
Record form. Attribute: TGI. Fill in for each entry.

Reference set (5 entries):
COc1cc2c(=O)n(CCN)c3c4cc5c(cc4ccc3c2cc1OC)OCO5    1.75 µM
N#CC1(O)CCCCCCCCCCC1    > 100 µM
CN(C)CC1CCC/C(=C\c2ccc(OC(=O)c3ccc(Cl)cc3)cc2)C1=O (stereo unspecified)    3.08 µM
CCC[n+]1cc2cc(OC)c(OC)cc2c2c1-c1cc3c(cc1C2)OCO3    3.57 µM
CC(C)C(CC(=O)OCC(CO)OC(=O)CC(C(C)C)C(C)C)C(C)C (stereo unspecified)    30.9 µM

Batch request: TGI for each of the following compounds.
1. CN(C)CCCNC(=O)c1ccc2c(c1)oc1cc3ccccc3c(=O)n12
2. O=c1cccc(C2CC(CO)C3CCCCN3C2)[nH]1 (stereo unspecified)
3. O=C(O)c1cccc2cccc(-c3cccc4cccc(C(=O)O)c34)c12
4. C/C=C(/C)C(=O)OC1CC(C)[C@H]2CC(=O)C(C)=C2CC1C(C)(C)OC(C)=O (stereo partly specified)

Marked response:
1. 22.8 µM
2. > 100 µM
3. > 100 µM
4. > 100 µM

Batch request: TGI for each of the following compounds.
1. Cc1cc(C)c2c(=O)cc(-c3cccc(F)c3)[nH]c2n1
2. COC(=O)[C@]12CCC(C)[C@H](C)[C@H]1C1=CCC3[C@@]4(C)CC[C@H](OC(C)=O)C(C)(C)C4CC[C@@]3(C)C1(C)C(O)C2 (stereo partly specified)
3. Cc1cc2c(O)c(c1)CN(CC(=O)O)Cc1cc(C)cc(c1O)CN(CC(=O)O)Cc1cc(C)cc(c1O)CN(CC(=O)O)C2

Marked response:
1: > 84.1 µM; 2: > 100 µM; 3: > 100 µM

---

system: MDA-MB-435; assay: NCI tumour cell line growth inhibition, 48 h
Quantity Measured: TGI (µM)
One number for each entry, in µM.

Reference set (3 entries):
O=C1C=CC(=O)c2c(O)c(N3CCC[C@H]3CO)c(Cl)c(O)c21    3.45
CCCOc1ccc2nc(NC(=O)OC)[nH]c2c1    0.11
COc1cc2c(=O)n(CCN)c3c4cc5c(cc4ccc3c2cc1OC)OCO5    2.29

Would you kindly look at the next entry?
Exam item: // lookup TGI for COc1cccc2c1C(=O)c1c(O)c3c(c(O)c1C2=O)C[C@H](O)C[C@@H]3OC1CC(N)C(O)C(C)O1 (some centres undefined)
Marked response: 8.05

---

system: EKVX NSCLC; assay: NCI tumour cell line growth inhibition, 48 h; in the data active means GI50 below about 0.43 µM; inactive means the rest
Select the correct class. Options are 1 (yes) (active), 0 (no) (inactive) and nothing else.

Solved entries (count: 5):
COc1ccc2cc(-c3c(-c4ccncc4)nc(-c4ccc(S(C)(=O)=O)cc4C)n3C)ccc2c1    0 (no)
Cc1cc2c(cc1Cl)SC1=NN(C)C(N(C)C)N1S2(=O)=O (stereo not given)    0 (no)
CNCCn1c(=O)c2cc(OC)c(OC)cc2c2ccc3cc4c(cc3c21)OCO4    1 (yes)
COc1ccc(Cn2cc3c(c2)-c2oncc2CC3)cc1    0 (no)
C/C=C1\NC(=O)[C@H]2CSSCCC=C[C@H](CC(=O)N[C@H](C(C)C)C(=O)N2)OC(=O)[C@H](C(C)C)NC1=O    1 (yes)

Exam item: Name the outcome recorded for O=C(O)C1CCCCC1C(=O)O.[NH-]C1CCC1.[NH2-].[Pt+2] (stereo not given) in the assay.
Marked response: 0 (no)

Exam item: Name the outcome recorded for `COc1cc(S(=O)(=O)Nc2ccc(C(=O)/C=C/c3ccc(O)cc3)cc2)ccc1F` in the assay.
Marked response: 0 (no)

Exam item: Name the outcome recorded for CCc1c(CNc2ccc(C(=O)NC(CC(=O)O)C(=O)O)cc2)ccc2nc(N)nc(N)c12 (stereo not given) in the assay.
Marked response: 0 (no)

Exam item: Name the outcome recorded for `CCCCCCCCCCCCCCCCCC1=NCCN1C(=O)OCCO` in the assay.
Marked response: 0 (no)

Exam item: Name the outcome recorded for `CCOC(=O)/C=C/C1=C(c2cccs2)c2ccccc2CC1` in the assay.
Marked response: 0 (no)

---

system: UACC-257 melanoma; experiment: NCI tumour cell line growth inhibition, 48 h; in the data active = GI50 below about 0.43 µM; inactive = the rest
Select the correct class. Options are active, inactive and nothing else.

Solved entries (count: 3):
Cc1[nH]nc(C(=O)n2nc(N)c3ccccc32)c1[N+](=O)[O-]    inactive
CCOc1cc(/C=N\Nc2nnc(C)n2N)c(C)cc1N(CCCl)CCCl    active
CC[PH+](CC)CC.O=COC1OC([S-])C(OC=O)C(OC=O)C1OC=O.[Au+] (centres undefined)    inactive

Exam item: Name the outcome recorded for O=C(O)C1CCCCC1C(=O)O.[NH-]C1CCC1.[NH2-].[Pt+2] (centres undefined) in the assay.
Marked response: inactive

---

Record form. Attribute: TGI. Fill in for each entry.
tested on: NCI-H460 lung; test: NCI tumour cell line growth inhibition, 48 h

Reference set (4 entries):
Cc1c(CN2CCN(C)CC2)c(CN2CCN(C)CC2)c(C)n1-c1ccc(Cl)cc1    > 100 µM
COC(=O)C1C(C(=O)OC)C2(OC(c3ccc(Cl)cc3)=CC2=O)C12OC(c1ccc(Cl)cc1)=CC2=O (centres undefined)    41.5 µM
C=C1C(OC2O[C@@H]3O[C@@]4(C)CC[C@H]5[C@H](C)CC[C@@H](C2=C)[C@@]35O4)O[C@@H]2O[C@@]3(C)CC[C@H]4[C@H](C)CC[C@@H]1[C@@]24O3 (some centres undefined)    > 50 µM
Nc1ccccc1C#C/C=C\C#Cc1ccccc1    52.6 µM

Batch request: TGI for each of the following compounds.
1. Cc1ccc2c(c1)-c1c(C#N)c(N)nc(-c3ccc(Cl)cc3)c1CCS2(=O)=O
2. CSc1cc(=O)n2c3ccccc3c3ccnc1c32

Marked response:
1. > 100 µM
2. > 100 µM

---

Record form. Attribute: TGI. Fill in for each entry.
tested on: MALME-3M melanoma; test: NCI tumour cell line growth inhibition, 48 h
One number for each entry, in µM.

Cc1c(C(=O)NCCN2CCOCC2)cn2ncnc(Oc3ccc(NC(=O)Nc4ccc(Cl)c(C(F)(F)F)c4)cc3)c12    2.76

Would you kindly look at the next entry?
Exam item: // lookup TGI for COc1ccc(C2=NN(C=O)C(c3cccc(Nc4ccnc5cc(Cl)ccc45)c3)C2)cc1 (stereo not given)
Marked response: 18.9

---

Record form. Attribute: TGI. Fill in for each entry.
test system: NCI-H226 lung; assay: NCI tumour cell line growth inhibition, 48 h

C=C(C)OCOCCOC    > 100 µM

Batch request: TGI for each of the following compounds.
1. Cn1c(=O)c(-c2ccccc2)c(O)c2ccccc21
2. C[C@]12CCCC(=O)C1(O)C[C@H](C(=O)O)CC2 (stereo partly drawn)

Marked response:
> 100 µM
> 100 µM

---

tested on: RPMI-8226 leukemia; assay: NCI tumour cell line growth inhibition, 48 h
Quantity Measured: TGI

Reference set (8 entries):
OCCNc1ncnc2c1ncn2Cc1cccc(COc2cccc(OCc3cccc(Cn4cnc5c(NCCO)ncnc54)c3)c2)c1    27.8 µM
O=c1[nH]c2nc3ccccc3nc2[nH]c1=O    > 100 µM
O=C(c1ccncc1)n1nc(-c2ccccc2)c(N=Nc2ccccc2[N+](=O)[O-])c1-c1ccccc1    > 100 µM
CC(=O)OCC1OC(n2c(-c3ccccc3)c(N=Nc3ccccc3)c(C)c(C#N)c2=S)C(OC(C)=O)C(OC(C)=O)C1OC(C)=O (stereo not given)    > 100 µM
COc1ccc(Cn2c3c(cc(OS(=O)(=O)C(F)(F)F)c2=O)Cc2ccccc2-3)cc1    50 µM
CCC1=C(C(C)=O)[C@@H]2CCCCC[C@@H](C(=O)OC)C2C1=O (stereo not given in full)    > 100 µM
O=c1nc2c(c(-c3ccc(Br)cc3)[nH]1)COC/C2=C\c1ccc(Br)cc1    > 50 µM
O=[N+]([O-])c1ccc(NC(=S)N=Nc2c(O)[nH]c3ccc([N+](=O)[O-])cc23)cc1    > 100 µM

Batch request: TGI for each of the following molecules.
1. CC(C)C(=O)C(C)(C)CCc1ccccn1
2. O=C1C=CC=C/C1=C1\N=C(c2ccccc2OCC(=O)c2ccccc2)SS1
3. N.N.N.N.O=C([O-])C(Cl)Cl.O=C([O-])C(Cl)Cl.[Co+3].[O-][Cl+3]([O-])([O-])[O-]
4. CC[PH+](CC)CC.O=COC1OC([S-])C(OC=O)C(OC=O)C1OC=O.[Au+] (stereo not given)
5. COC(=O)/C(=N\NC(C)(C)C)C(C(=O)C(=O)Nc1cc(C)ccc1C)c1nc2ccccc2[nH]c1=O (stereo not given)
6. NC(=S)NNc1c([N+](=O)[O-])cnn(-c2ccccc2)c1=O
7. CCOC(=O)/C=C/C1=C(c2cccs2)c2ccccc2CC1

Marked response:
1: > 100 µM; 2: > 100 µM; 3: > 100 µM; 4: 5.07 µM; 5: > 100 µM; 6: > 100 µM; 7: 49.4 µM

Origin of measurements: PubChem BioAssay (NCI)
